assay-target: renin (Homo sapiens, UniProt P00797)
Construct: endogenous renin and angiotensinogen in plasma
Sequence (P00797 67-406): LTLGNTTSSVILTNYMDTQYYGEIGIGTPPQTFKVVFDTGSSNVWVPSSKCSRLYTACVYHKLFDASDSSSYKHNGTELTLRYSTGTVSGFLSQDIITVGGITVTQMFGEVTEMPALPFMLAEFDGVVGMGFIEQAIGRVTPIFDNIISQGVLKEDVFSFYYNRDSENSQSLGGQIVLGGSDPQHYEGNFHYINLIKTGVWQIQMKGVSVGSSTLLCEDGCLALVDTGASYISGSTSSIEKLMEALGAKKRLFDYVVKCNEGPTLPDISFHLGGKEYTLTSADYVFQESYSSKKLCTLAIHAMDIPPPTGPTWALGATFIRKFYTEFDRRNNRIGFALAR
test-details: Inhibition of human plasma renin activity (angiotensin I formation, RIA)
measurement-conditions: endogenous renin and angiotensinogen, pH 6.0, 37° C, 90 minutes, RIA of Ang I
Protocol: Human plasma was collected from male volunteers pretreated with no drugs and used as a pool. Disodium salt of ethylenediaminetetraacetic acid (EDTA) was used as the anticoagulant. Plasma renin activity was measured as the rate of angiotensin I (Ang I) formation after incubation (37° C) of the endogenous renin and angiotensinogen in plasma at pH 6.0. […] Samples were incubated in duplicate and each tube was measured in duplicate in the RIA. […]
pIC50: −log10 of the molar value.
Each item that follows carries a reported pIC50.

sample-smiles: CC(C)CC[C@H](O)[C@H](CC1CCCCC1)NC(=O)[C@H](Cc1c[nH]cn1)N(C)C(=O)[C@H](Cc1ccccc1)OC(=O)N(C)CCCCC(=O)N(C)C(C)C
pIC50: 7.80
--
sample-smiles: CC(C)CC[C@H](O)[C@H](CC1CCCCC1)NC(=O)[C@H](Cc1c[nH]cn1)N(C)C(=O)[C@H](Cc1ccccc1)OC(=O)N(C)CC(=O)OCC(C)C
pIC50: 7.47
--
sample-smiles: CC(C)CC[C@H](O)[C@H](CC1CCCCC1)NC(=O)[C@H](Cc1c[nH]cn1)N(C)C(=O)[C@H](Cc1ccccc1)OC(=O)N1CCCC(=O)C1
pIC50: 7.36
--
sample-smiles: CC(C)CC[C@H](O)[C@H](CC1CCCCC1)NC(=O)[C@H](Cc1c[nH]cn1)N(C)C(=O)[C@H](Cc1ccccc1)OC(=O)N1CCN(C)C(=O)C1
pIC50: 7.72
--
sample-smiles: CC(C)CC[C@H](O)[C@H](CC1CCCCC1)NC(=O)[C@H](Cc1c[nH]cn1)N(C)C(=O)[C@H](Cc1ccccc1)OC(=O)N(C)CCN(C)C(=O)CC(C)C
pIC50: 7.85
--
sample-smiles: CC(C)CC[C@H](O)[C@H](CC1CCCCC1)NC(=O)[C@H](Cc1c[nH]cn1)N(C)C(=O)[C@H](Cc1ccccc1)OC(=O)N(C)CCCCC(=O)N1CCOCC1
pIC50: 8.28

====

assay-target: renin (Homo sapiens, UniProt P00797)
Construct: endogenous renin and angiotensinogen in plasma; from tissue; host or cells: pooled human plasma (EDTA) from male volunteers
test-details: Inhibition of human plasma renin activity (angiotensin I formation, RIA)
Assay type: biochemical
measurement-conditions: endogenous renin and angiotensinogen, pH 6.0, 37° C, 90 minutes, RIA of Ang I
pIC50: −log10 of the molar value.
Each item that follows carries a reported pIC50.

molecule: CC(C)CC[C@H](O)[C@H](CC1CCCCC1)NC(=O)[C@H](Cc1c[nH]cn1)N(C)C(=O)[C@H](Cc1ccccc1)OC(=O)N(C)CCC(=O)N(C)C [(6)]
pIC50: 7.39
//
molecule: CCOC(=O)CNC(=O)CCN(C)C(=O)O[C@@H](Cc1ccccc1)C(=O)N(C)[C@@H](Cc1c[nH]cn1)C(=O)N[C@@H](CC1CCCCC1)[C@@H](O)CCC(C)C [(16)]
pIC50: 7.42
//
molecule: CC(C)CC[C@H](O)[C@H](CC1CCCCC1)NC(=O)[C@H](Cc1c[nH]cn1)N(C)C(=O)[C@H](Cc1ccccc1)OC(=O)N(C)CCC(=O)N(C)CCc1ccccn1 [(37)]
pIC50: 7.42
//
molecule: COC(=O)[C@H]1CCCN1C(=O)O[C@@H](Cc1ccccc1)C(=O)N(C)[C@@H](Cc1c[nH]cn1)C(=O)N[C@@H](CC1CCCCC1)[C@@H](O)CCC(C)C [(4)]
pIC50: 7.89
//
molecule: CC(C)CC[C@H](O)[C@H](CC1CCCCC1)NC(=O)[C@H](Cc1c[nH]cn1)NC(=O)[C@H](Cc1ccccc1)OC(=O)N(C)CCC(=O)N1CCOCC1 [(19)]
pIC50: 8.32
//
molecule: CC(C)CC[C@H](O)[C@H](CC1CCCCC1)NC(=O)[C@H](Cc1c[nH]cn1)N(C)C(=O)[C@H](Cc1ccccc1)OC(=O)N(C)CCN(C)C(=O)C(C)C [(24)]
pIC50: 8.06
